Test: Viability Counterscreen for CMV-Luciferase Assay of Inhibitors of ATXN expression; note: nearly all actives have a fitted effect of over 55% in size; note: potency is the fitted concentration of half-maximal effect
Settings: HEK-293 CMV-luciferase cells viability, protease fluorescence, 24 h
Text: PI: Daniel Scoles Ph.D. University of Utah School of Medicine, Salt Lake City, Utah MLPCN Grant: NS073009 Spinocerebellar ataxia type 2 (SCA2) is a multisystem neurodegenerative disease caused by a dominantly acting mutation leading to expansion of a polyQ domain in the ataxin-2 protein (ATXN2). SCA2 patients develop progressive ataxia and later lose function in other neuronal systems. […] Here we describe a 5-7 dose quantitative high thoroughput screen (qHTS) for compounds lowering ATXN2 expression. […]
Hit rate of the full screen: of about 2,100 compounds, about 320 (15%) were called active. About 52% were inconclusive and are not listed. The list shows a part of the results.
Property Name: Potency

In the examples that follow, each entry is paired with its recorded Potency.
INSERT INTO assay_data (molecule, value) VALUES
  ('O=C1C=CCC(/C=C/c2ccccc2)O1 (stereo not drawn)', '31.6 µM (active)'),
  ('O=c1c2c(-c3ccccc3)csc2nc2c3ccccc3c(NCCN3CCOCC3)nn12', 'inactive'),
  ('COCc1ccc(CN2CCC(C(=O)Nc3cccc(-c4cccc(Cl)c4)c3)CC2)o1', '17.8 µM (active)'),
  ('CCCCC1C(=O)CC[C@H]2[C@@H]1CC(=O)[C@@H]2C/C=C\CCCC(=O)O (stereo partly drawn)', 'inactive'),
  ('O=C(Nc1cccc(Br)c1)c1ccc(Cl)c(S(=O)(=O)N2CCOCC2)c1', 'inactive'),
  ('Cc1ccc(S(=O)(=O)/N=C(\Sc2ccccc2)c2ccccc2)cc1', '15.8 µM (active)');

Dear colleague, I am looking for the recorded Potency of the following molecule: Cc1ccc2c(c1)-c1c(cnn1CC(=O)N1CCCN(Cc3ccccc3F)C1)CO2 inactive

// repeat for CCCCNCCCOc1cccc(Cl)c1Cl and report inactive

// repeat for N#C/C(=C/c1ccc(Sc2nc3ccccc3[nH]2)o1)c1cccc(F)c1 and report inactive

// repeat for CCCc1ccc(O)c(N=Cc2cc(Br)cc(OCC)c2O)c1 and report inactive

// repeat for Cc1n(Cc2ccccc2)c2ccccc2[n+]1Cc1ccccc1 and report inactive

// repeat for COCC(C)n1c(C)cc(C(=O)COC(=O)c2cccn2C)c1C (stereo not drawn) and report inactive

// repeat for N#Cc1c(N)n(C2OC(CO)C(O)C2O)c2ncnc(N)c12 (stereo not drawn) and report 1.41 µM (active)

// repeat for COc1cc(C=CC(=O)c2cc(OC)c(OC)c(OC)c2)cc(OC)c1OC and report 10 µM (active)

// repeat for CC1(C(=O)NCc2cccc(C(F)(F)F)c2)CCN1Cc1ccc(-c2ccccc2)o1 (stereo not drawn) and report inactive

// repeat for N=c1ccn(CC(=O)c2ccc(-c3ccccc3)cc2)cc1 and report inactive

// repeat for CC(=O)c1ccc(N2CCN(CC(O)COC(c3ccccc3)c3ccccc3)CC2)cc1 (stereo not drawn) and report inactive

// repeat for O=C(N/N=C/c1cc(Br)cc(Br)c1O)c1cccc(N2CCCC2=O)c1 and report inactive

###

assay: Viability Counterscreen for CMV-Luciferase Assay of Inhibitors of ATXN expression; settings: HEK-293 CMV-luciferase cells viability, protease fluorescence, 24 h; note: nearly all actives have a fitted effect of over 55% in size
Among all 2,100 compounds or so, about 320 (15%) were called active. Not shown: some 52% with an inconclusive outcome. Calls come from the whole dose curve; as a rule, active = well fitted cell-killing curve with a large enough effect; inconclusive = small, poorly fitted or top-dose-only effect, or effect the other way; inactive = flat fitted curve, though single readings scatter. The list shows a part of the results.
Use one of these outcomes when replying: active, inactive

GET /call?item= NS(=O)(=O)c1ccc(Sc2nc3ccccc3s2)c([N+](=O)[O-])c1 returns the recorded outcome of this test. inactive

// repeat for CC1(C(=O)NCc2ccco2)CCN1C(=O)C1(c2ccccc2)CC1 (stereo unspecified) and report inactive

// repeat for Cc1nc(SCc2ccc(C(=O)O)cc2)nc2c1CCCC2 and report inactive

// repeat for CCOC(=O)c1c(-n2cccc2)sc2c1CCCC2=O and report inactive

// repeat for CN1C/C(=C/c2cccnc2)C(=O)/C(=C/c2cccnc2)C1 and report inactive

// repeat for Cc1csc(NC(=O)COCC(=O)O)c1-c1nc2ccccc2s1 and report inactive

// repeat for O=C(CSc1ccc2ccccc2c1)Nc1nc2ccccc2[nH]1 and report inactive

// repeat for Cc1nn(-c2ccccn2)c2c1C(=O)CC(C)(C)C2N=[N+]=[N-] (stereo unspecified) and report inactive

// repeat for O=C(CSc1n[nH]c(-c2ccccn2)n1)Nc1ccc(F)cc1 and report active

// repeat for O=C1/C(=C/c2ccncc2)CCC/C1=C\c1ccncc1 and report active

// repeat for O=C(CSc1n[nH]c(-c2ccccn2)n1)Nc1cccc(Cl)c1 and report active
